Test system: Candida albicans
Experiment: Effect on brefeldin A MIC against Candida albicans isolate GU4 in presence of 30 uM compound by two fold dilution method
Item-by-item account of MIC
Entry rule: numbers only, all in µg/mL.

Use the examples below as a reference point.
>  <SMILES_ENTRY>
O=C1C(c2ccc(O)c(OS(=O)(=O)O)c2)=c2c(c3c(n2CCc2ccc(O)cc2)=C(c2ccc(O)c(O)c2)C(=O)c2cc(O)c(OS(=O)(=O)O)cc2-3)-c2cc(O)c(O)cc21

>  <REPORTED_PROPERTY>
MIC

>  <REPORTED>
12.5

$$$$
>  <SMILES_ENTRY>
O=C1C(c2ccc(O)c(O)c2)=c2c(c3c(n2CCc2ccc(O)cc2)=C(c2ccc(O)c(O)c2)C(=O)c2cc(O)c(OS(=O)(=O)O)cc2-3)-c2cc(OS(=O)(=O)O)c(O)cc21

>  <REPORTED_PROPERTY>
MIC

>  <REPORTED>
12.5

$$$$
>  <SMILES_ENTRY>
O=C1C(c2ccc(O)c(O)c2)=c2c(c3c(n2CCc2ccc(O)cc2)=C(c2ccc(O)c(O)c2)C(=O)c2cc(O)c(OS(=O)(=O)O)cc2-3)-c2cc(O)c(O)cc21

>  <REPORTED_PROPERTY>
MIC

>  <REPORTED>
12.5

$$$$
>  <SMILES_ENTRY>
O=C1C(c2ccc(O)c(O)c2)=c2c(c3c(n2CCc2ccc(O)cc2)=C(c2ccc(O)c(OS(=O)(=O)O)c2)C(=O)c2cc(O)c(OS(=O)(=O)O)cc2-3)-c2cc(O)c(O)cc21

>  <REPORTED_PROPERTY>
MIC

>  <REPORTED>
12.5

$$$$
>  <SMILES_ENTRY>
O=C1C(c2ccc(O)c(O)c2)=c2c(c3c(n2CCc2ccc(O)cc2)=C(c2ccc(O)c(OS(=O)(=O)O)c2)C(=O)c2cc(O)c(O)cc2-3)-c2cc(O)c(O)cc21

>  <REPORTED_PROPERTY>
MIC

>  <REPORTED>
12.5

$$$$
>  <SMILES_ENTRY>
O=C1C(c2ccc(O)c(O)c2)=c2c(c3c(n2CCc2ccc(O)cc2)=C(c2ccc(O)c(O)c2)C(=O)c2cc(O)c(O)cc2-3)-c2cc(O)c(O)cc21

>  <REPORTED_PROPERTY>
MIC

>  <REPORTED>
12.5

$$$$

IN: What measured MIC goes with O=C(O)Cn1c2c(c3c1=C(c1ccc(O)c(O)c1)C(=O)c1cc(O)c(OS(=O)(=O)O)cc1-3)-c1cc(O)c(O)cc1C(=O)C=2c1ccc(O)c(O)c1 ?
OUT: 12.5

* * *

System: BGC-823
Test: Cytotoxicity against human BGC823 cells
Format: functional, cell-based
Calls of active or inactive are those of the source. The rule behind the calls is not given here.

>  <SMILES_ENTRY>
O=C1C(c2ccc(O)c(O)c2)=c2c(c3c(n2CCc2ccc(O)cc2)=C(c2ccc(O)c(O)c2)C(=O)c2cc(O)c(OS(=O)(=O)O)cc2-3)-c2cc(OS(=O)(=O)O)c(O)cc21

>  <Activity>
inactive

$$$$
>  <SMILES_ENTRY>
O=c1oc2cc(O)c(O)cc2c2c1[nH]c1c(=O)oc3cc(O)c(O)cc3c12

>  <Activity>
inactive

$$$$
>  <SMILES_ENTRY>
O=C(O)Cn1c2c(c3c1=C(c1ccc(O)c(O)c1)C(=O)c1cc(O)c(O)cc1-3)-c1cc(O)c(O)cc1C(=O)C=2c1ccc(O)c(O)c1

>  <Activity>
inactive

$$$$

* * *

Target: DNA dC->dU-editing enzyme APOBEC-3G (Homo sapiens)
Assay: Binding affinity to human recombinant APOBEC3G at 20 ug/ml
Class definitions on RU: lowest (below 600 pg/mm2), middle (600 pg/mm2 to below 1000 pg/mm2), highest (1000 pg/mm2 or more)

>  <SMILES_ENTRY>
O=C1C(c2ccc(O)c(O)c2)=c2c(c3c(n2CCc2ccc(O)cc2)=C(c2ccc(O)c(OS(=O)(=O)O)c2)C(=O)c2cc(O)c(OS(=O)(=O)O)cc2-3)-c2cc(OS(=O)(=O)O)c(O)cc21

>  <GROUP_LABEL>
lowest

$$$$
>  <SMILES_ENTRY>
O=C1C(c2ccc(O)c(O)c2)=c2c(c3c(n2CCc2ccc(O)cc2)=C(c2ccc(O)c(OS(=O)(=O)O)c2)C(=O)c2cc(O)c(O)cc2-3)-c2cc(O)c(O)cc21

>  <GROUP_LABEL>
lowest

$$$$
>  <SMILES_ENTRY>
O=C1C(c2ccc(O)c(OS(=O)(=O)O)c2)=c2c(c3c(n2CCc2ccc(O)cc2)=C(c2ccc(O)c(OS(=O)(=O)O)c2)C(=O)c2cc(O)c(OS(=O)(=O)O)cc2-3)-c2cc(O)c(O)cc21

>  <GROUP_LABEL>
lowest

$$$$

IN: The entry to classify is O=C1C(c2ccc(O)c(OS(=O)(=O)O)c2)=c2c(c3c(n2CCc2ccc(O)cc2)=C(c2ccc(O)c(OS(=O)(=O)O)c2)C(=O)c2cc(O)c(O)cc2-3)-c2cc(O)c(O)cc21 ; which class holds it?
OUT: middle

IN: The entry to classify is O=C1C(c2ccc(O)c(O)c2)=c2c(c3c(n2CCc2ccc(O)cc2)=C(c2ccc(O)c(O)c2)C(=O)c2cc(O)c(O)cc2-3)-c2cc(O)c(O)cc21 ; which class holds it?
OUT: lowest

* * *

Item-by-item account of RU
Tested on: Human immunodeficiency virus 1
Assay: Binding affinity to HIV1 recombinant gp41 at 20 ug/ml

Use the examples below as a reference point.
>  <SMILES_ENTRY>
O=C1C(c2ccc(O)c(O)c2)=c2c(c3c(n2CCc2ccc(O)cc2)=C(c2ccc(O)c(O)c2)C(=O)c2cc(O)c(OS(=O)(=O)O)cc2-3)-c2cc(O)c(O)cc21

>  <RU>
17.1 pg/mm2

$$$$
>  <SMILES_ENTRY>
O=C1C(c2ccc(O)c(O)c2)=C2C(=C(c3ccc(O)c(O)c3)C(=O)N2CCc2ccc(O)cc2)c2cc(O)c(O)cc21

>  <RU>
523 pg/mm2

$$$$

Proceeding to the next compound to report its RU.
IN: What measured RU goes with O=C1C(c2ccc(O)c(O)c2)=c2c(c3c(n2CCc2ccc(O)cc2)=C(c2ccc(O)c(O)c2)C(=O)c2cc(O)c(O)cc2-3)-c2cc(O)c(O)cc21 ?
OUT: -23 pg/mm2

* * *

Item-by-item account of log10(RU)
System: Human immunodeficiency virus 1
Assay: Binding affinity to HIV1 recombinant Vif at 20 ug/ml
Friendly reminder: values = log10 of RU, unit pg/mm2.

>  <COMPOUND>
O=C(O)Cn1c2c(c3c1=C(c1ccc(O)c(O)c1)C(=O)c1cc(O)c(O)cc1-3)-c1cc(O)c(O)cc1C(=O)C=2c1ccc(O)c(O)c1 [BACULIFERIN L]

>  <TARGET_DESC>
Human immunodeficiency virus 1

>  <REPORTED>
3.30

$$$$
>  <COMPOUND>
O=C1C(c2ccc(O)c(OS(=O)(=O)O)c2)=c2c(c3c(n2CCc2ccc(O)cc2)=C(c2ccc(O)c(OS(=O)(=O)O)c2)C(=O)c2cc(O)c(O)cc2-3)-c2cc(O)c(O)cc21 [BACULIFERIN C]

>  <TARGET_DESC>
Human immunodeficiency virus 1

>  <REPORTED>
2.47

$$$$
>  <COMPOUND>
O=C1C(c2ccc(O)c(OS(=O)(=O)O)c2)=c2c(c3c(n2CCc2ccc(O)cc2)=C(c2ccc(O)c(OS(=O)(=O)O)c2)C(=O)c2cc(O)c(OS(=O)(=O)O)cc2-3)-c2cc(O)c(O)cc21 [BACULIFERIN G]

>  <TARGET_DESC>
Human immunodeficiency virus 1

>  <REPORTED>
2.65

$$$$

IN: Under Human immunodeficiency virus 1: log10(RU) value of O=C1C(c2ccc(O)c(O)c2)=c2c(c3c(n2CCc2ccc(O)cc2)=C(c2ccc(O)c(O)c2)C(=O)c2cc(O)c(OS(=O)(=O)O)cc2-3)-c2cc(O)c(O)cc21 [BACULIFERIN A] ?
OUT: 2.05

IN: Under Human immunodeficiency virus 1: log10(RU) value of O=C(O)Cn1c2c(c3c1=C(c1ccc(O)c(O)c1)C(=O)c1cc(O)c(OS(=O)(=O)O)cc1-3)-c1cc(O)c(O)cc1C(=O)C=2c1ccc(O)c(O)c1 [BACULIFERIN M] ?
OUT: 3.28

IN: Under Human immunodeficiency virus 1: log10(RU) value of O=c1oc2cc(O)c(O)cc2c2c1[nH]c1c(=O)oc3cc(O)c(O)cc3c12 ?
OUT: 1.07

* * *

Test system: Human immunodeficiency virus 1
Test: Binding affinity to HIV1 recombinant Vif at 20 ug/ml
REPORTED_PROPERTY: RU
Give the figure together with its unit, number first.

Use the examples below as a reference point.
>  <SMILES_ENTRY>
O=C1C(c2ccc(O)c(OS(=O)(=O)O)c2)=c2c(c3c(n2CCc2ccc(O)cc2)=C(c2ccc(O)c(O)c2)C(=O)c2cc(O)c(OS(=O)(=O)O)cc2-3)-c2cc(O)c(O)cc21

>  <REPORTED>
362 pg/mm2

$$$$
>  <SMILES_ENTRY>
O=C1C(c2ccc(O)c(O)c2)=c2c(c3c(n2CCc2ccc(O)cc2)=C(c2ccc(O)c(OS(=O)(=O)O)c2)C(=O)c2cc(O)c(O)cc2-3)-c2cc(O)c(O)cc21

>  <REPORTED>
152 pg/mm2

$$$$
>  <SMILES_ENTRY>
O=C1C(c2ccc(O)c(O)c2)=C2C(=C(c3ccc(O)c(O)c3)C(=O)N2CCc2ccc(OS(=O)(=O)O)cc2)c2cc(O)c(O)cc21

>  <REPORTED>
529 pg/mm2

$$$$

IN: Under Human immunodeficiency virus 1: RU value of O=C(O)CN1C(=O)C(c2ccc(O)c(O)c2)=C2C1=C(c1ccc(O)c(O)c1)C(=O)c1cc(O)c(O)cc12 ?
OUT: 597 pg/mm2
